As an illustration, consider measured Ki for compounds on human 5-HT2A receptor (Homo sapiens, UniProt P28223).
Sequence (P28223 whole entry): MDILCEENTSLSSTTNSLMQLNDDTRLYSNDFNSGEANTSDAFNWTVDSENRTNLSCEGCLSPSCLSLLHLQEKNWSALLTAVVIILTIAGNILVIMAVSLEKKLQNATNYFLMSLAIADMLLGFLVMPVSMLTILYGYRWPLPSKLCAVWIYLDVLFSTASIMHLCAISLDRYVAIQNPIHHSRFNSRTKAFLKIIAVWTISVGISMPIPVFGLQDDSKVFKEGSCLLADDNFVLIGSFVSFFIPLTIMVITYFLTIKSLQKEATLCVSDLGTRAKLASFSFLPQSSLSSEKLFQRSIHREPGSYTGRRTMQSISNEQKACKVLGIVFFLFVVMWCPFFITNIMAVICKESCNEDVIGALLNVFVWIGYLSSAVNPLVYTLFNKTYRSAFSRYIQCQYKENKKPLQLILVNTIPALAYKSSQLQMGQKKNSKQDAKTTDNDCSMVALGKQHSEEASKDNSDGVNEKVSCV
EXPERIMENTAL READOUT: Ki (nM)

(1) O=c1ccc2ccc(OCCn3ccnc(N4CCNCC4)c3=O)cc2o1
(2) O=c1c(N2CCNCC2)nccn1CCOc1ccc(F)c(F)c1F
(3) O=C(c1ccccc1)c1cccc(OCCn2ccnc(N3CCNCC3)c2=O)c1
-- ask Sort the entries above numerically by Ki, high end first. Give the order by naming the labels one after another as requested.
-- reply 1, 2, 3

###

Structures can show the parent of a compound that is named as a salt.
melting point reference

MOLECULE	melting point
C=CCc1ccc(OCCn2ccnc(N3CCNCC3)c2=O)c(OC)c1 (as salt: maleate)	158 to 160 °C

-- ask Need melting point of O=c1c(N2CCNCC2)nccn1CCOc1cccc([N+](=O)[O-])c1 , thanks.
-- reply 171 °C

-- ask Dear colleague, I am looking for the recorded melting point of the following molecule: O=c1c(N2CCNCC2)nccn1CCCOc1cc(F)c(F)cc1F (as salt: trifluoroacetate)
-- reply 100.3 to 100.9 °C (dec.)

-- ask What does the data say about its melting point? Entry: O=C(c1ccccc1)c1cccc(OCCn2ccnc(N3CCNCC3)c2=O)c1
-- reply 69 to 70 °C

-- ask Data request, read-out melting point, for N#Cc1cccc(OCCn2ccnc(N3CCNCC3)c2=O)c1
-- reply 49 to 52 °C

###

Counter-ions that a name gives are not always drawn.
EXPERIMENTAL READOUT: melting point

// solved cases for melting point follow
COMPOUND	EXPERIMENTAL VALUE
O=c1c(N2CCNCC2)nccn1CCCCOc1cc(F)c(F)cc1F (as salt: trifluoroacetate)	113.4 to 116.6 °C (dec.)
O=c1c(N2CCN(Cc3ccccc3)CC2)nccn1CCOc1cc(F)c(F)cc1F (as salt: hydrochloride)	214 to 214.5 °C

Proceed to the following item.
-- ask So what's the measured melting point for this one? O=c1c(N2CCNCC2)nccn1CCOc1noc2ccccc12 (as salt: hydrochloride)
-- reply 174 to 176 °C

###

Structures can show the parent of a compound that is named as a salt.
EXPERIMENTAL READOUT: melting point

For orientation, consider the following solved cases.
COMPOUND	EXPERIMENTAL VALUE
O=c1c(N2CCNCC2)nccn1CCOc1c(F)c(F)cc(F)c1F (as salt: hydrochloride) [Example 4]	196 to 198 °C (dec.)
O=c1c(N2CCNCC2)nccn1CCOc1ccc([N+](=O)[O-])cc1F (as salt: hydrochloride) [Example 1]	105 to 108 °C
O=c1c(N2CCNCC2)nccn1CCOc1cc(F)cc(F)c1 [Example 25]	119 to 121 °C
CC(c1ccccc1)N1CCN(c2nccn(CCOc3cc(F)c(F)cc3F)c2=O)CC1 (racemic) (as salt: hydrochloride) [Example 60]	137 to 139 °C
O=c1c(N2CCNCC2)nccn1CCOc1cc(F)c(F)cc1F (as salt: hydrochloride) [Example 3]	193 to 195 °C

Here's the next entry for you.
-- ask Using the record for CN(C)c1cccc(OCCn2ccnc(N3CCNCC3)c2=O)c1 (as salt: fumarate) [Example 20] , report its melting point.
-- reply 180 to 191 °C
